experiment: Tmax in CD(SD) rat at 3 mg/kg, po measured upto 25 hrs; type: ADME, organism-based; details: in vivo
VALUE_KIND: Tmax (h)
State the answer as a number, implicitly in h.

Lookup: What value of Tmax has been reported for the following compound? Cc1ccc([C@@H](NC(=O)[C@@H](F)c2ccc3c(c2)CCCC3)[C@@H](C)C(=O)O)cc1
Found: 1.3

###

molecular target: Keap1/Nrf2 (Homo sapiens, UniProt Q14145); experiment: Inhibition of Nrf2-Keap1 Kelch domain (unknown origin) protein-protein interaction in presence of biotin labeled 16mer ETGE peptide AFFAQLQLDEETGEFL; assay type: protein assay
Sequence (Q16236 whole entry, the tested form may be a part): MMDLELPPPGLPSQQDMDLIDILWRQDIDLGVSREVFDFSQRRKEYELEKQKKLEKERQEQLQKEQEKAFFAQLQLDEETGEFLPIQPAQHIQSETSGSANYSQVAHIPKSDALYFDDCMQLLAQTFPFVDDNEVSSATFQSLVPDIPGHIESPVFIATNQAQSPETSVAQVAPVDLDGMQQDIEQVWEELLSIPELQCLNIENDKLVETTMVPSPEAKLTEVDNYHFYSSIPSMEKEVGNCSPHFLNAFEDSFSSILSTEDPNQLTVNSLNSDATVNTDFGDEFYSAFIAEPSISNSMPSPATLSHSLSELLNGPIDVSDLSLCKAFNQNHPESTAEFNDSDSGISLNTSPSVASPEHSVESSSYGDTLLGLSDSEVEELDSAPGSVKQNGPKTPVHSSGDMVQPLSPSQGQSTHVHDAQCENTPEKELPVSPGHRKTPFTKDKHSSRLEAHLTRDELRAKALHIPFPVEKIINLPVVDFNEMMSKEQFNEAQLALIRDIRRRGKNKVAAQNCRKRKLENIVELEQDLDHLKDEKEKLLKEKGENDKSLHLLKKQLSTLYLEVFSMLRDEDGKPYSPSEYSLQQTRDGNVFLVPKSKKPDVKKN
Sequence (Q14145 whole entry, the tested form may be a part): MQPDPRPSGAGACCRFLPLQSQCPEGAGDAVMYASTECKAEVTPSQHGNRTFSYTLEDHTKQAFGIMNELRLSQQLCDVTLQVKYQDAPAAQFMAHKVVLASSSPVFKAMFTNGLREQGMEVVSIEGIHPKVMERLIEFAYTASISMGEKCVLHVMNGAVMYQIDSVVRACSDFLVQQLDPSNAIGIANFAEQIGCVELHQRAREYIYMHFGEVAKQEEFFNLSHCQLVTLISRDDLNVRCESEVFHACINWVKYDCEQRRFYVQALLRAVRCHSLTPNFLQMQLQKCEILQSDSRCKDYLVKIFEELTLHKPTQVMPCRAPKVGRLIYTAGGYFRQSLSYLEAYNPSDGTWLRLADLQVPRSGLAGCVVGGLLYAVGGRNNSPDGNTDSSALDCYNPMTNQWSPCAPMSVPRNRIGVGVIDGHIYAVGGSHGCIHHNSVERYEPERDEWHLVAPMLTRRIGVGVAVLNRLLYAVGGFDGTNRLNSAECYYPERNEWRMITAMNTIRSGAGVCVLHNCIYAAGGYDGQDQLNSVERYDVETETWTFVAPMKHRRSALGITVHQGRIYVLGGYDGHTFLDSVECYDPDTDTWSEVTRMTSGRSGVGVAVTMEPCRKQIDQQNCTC
// log10(IC50) lookup, one value per entry
Note the log scale: values are log10 of IC50 expressed in µM.

Some molecules with recorded log10(IC50):
Lookup: Under Keap1/Nrf2 (Homo sapiens, UniProt Q14145): log10(IC50) value of Cc1ccc([C@H](CC(=O)O)NC(=O)Cc2ccc3c(c2)CCCC3)cc1 ?
Found: 1.59

Lookup: Quick one: Cc1ccc([C@@H](NC(=O)C(F)(F)c2ccccc2)[C@@H](C)C(=O)O)cc1
Found: 0.95

Next:
Lookup: Under Keap1/Nrf2 (Homo sapiens, UniProt Q14145): log10(IC50) value of Cc1ccc([C@@H](NC(=O)[C@@H](F)c2ccc3c(c2)CCCC3)[C@@H](C)C(=O)O)cc1 ?
Found: -1.05

Lookup: Quick one: CC[C@H](C(=O)O)[C@H](NC(=O)Cc1ccc2c(c1)CCCC2)c1ccc(C)cc1
Found: 2.00

Lookup: Quick one: COc1ccc(S(=O)(=O)Nc2ccc(N3CCCCCC3)cc2C(=O)O)cc1
Found: 1.57

Lookup: Quick one: CC[C@@H](C(=O)O)[C@H](NC(=O)Cc1ccc2c(c1)CCCC2)c1ccc(C)cc1
Found: 1.74

Lookup: Quick one: Cc1ccc(C(CC(=O)O)NC(=O)Cc2ccc3c(c2)CCCC3)cc1 (stereo not given)
Found: 1.60
